tested on: HCC-2998 colon; experiment: NCI tumour cell line growth inhibition, 48 h
TGI listing for selected molecules.

>>> reported("C#Cc1cccc(NC(=O)c2ccc(NC(=O)CCl)cc2)c1")
"> 82.5 µM"

[in] Which measured TGI value corresponds to COCCn1cc(-c2csc(-c3c[nH]c4ccc(Br)cc34)n2)c2cccnc21 ?
[out] > 100 µM

[in] Which measured TGI value corresponds to C=C(CCCO)[C@@H]1CC[C@@](C)(O)[C@H]1C ?
[out] > 100 µM

---

test system: NCI-H226 lung; assay: NCI tumour cell line growth inhibition, 48 h
valueType: TGI

// below: answered compounds
>>> reported("Nc1c(F)cc(-c2nc3cc(F)ccc3[se]2)cc1Br")
"2.06 µM"
>>> reported("S=C(N1CCN(c2ccccc2)CC1)N1CCN(c2ccccc2)CC1")
"> 100 µM"
>>> reported("COc1cccc(Nc2nccc(-c3cnn4ncccc34)n2)c1")
"0.18 µM"
>>> reported("COc1cc2ccc1OCc1cccc(n1)COc1ccc(cc1OC)C=NCCNCCN=C2")
"> 100 µM"
>>> reported("CC(=O)OCC1OC(n2nc(Cc3ccccc3)c(=S)[nH]c2=S)C(OC(C)=O)C(OC(C)=O)C1OC(C)=O (stereo not drawn)")
"> 100 µM"
>>> reported("CCN(CC)CCNc1ccc2nc(C)n3c4ccc(O)cc4c(=O)c1c23")
"2.13 µM"

[in] Which measured TGI value corresponds to CC1C(c2ccccc2O)c2cc3c(cc2OC1N1CCOCC1)OCO3 (stereo not drawn) ?
[out] 77.4 µM

[in] Which measured TGI value corresponds to COc1cc(/C=C2/C(=O)N(C(=O)OCc3ccccc3)C(Cc3cc(OC)c(OC)c(C)c3OC)C(=O)N2Cc2ccccc2)c(OC)c(C)c1OC (stereo not drawn) ?
[out] 12.6 µM

---

system: SF-295 CNS; test: NCI tumour cell line growth inhibition, 48 h
valueType: TGI

// below: answered molecules
>>> reported("CC1(C)OC(=O)C(Cc2ccccc2)(Cc2ccccc2)C(=O)O1")
"> 100 µM"
>>> reported("COc1cc(C2c3c(ccc4ccccc34)C(=O)C3CCC(=O)N32)cc(OC)c1O (stereo not given)")
"> 25 µM"

[in] Under SF-295 CNS: TGI value of CCCCN(CCCC)CCCn1cnc2ncccc2c1=O ?
[out] > 100 µM

[in] Under SF-295 CNS: TGI value of COc1c2c(cc3c1C(=O)Cc1ccc4c(c1CN(C)CC3)OCO4)OCO2 ?
[out] > 100 µM

[in] Under SF-295 CNS: TGI value of COC1CC(O[C@H]2CC[C@@]3(C)[C@@H](CC[C@]4(O)[C@@H]3CC[C@]3(C)[C@@H](C(C)=O)[C@H](OC(=O)CC(C)C)[C@@H](OC(=O)c5ccccc5)[C@@]34O)C2)OC(C)C1OC1CC(OC)C(OC2OC(C)C(O)C(OC)C2O)C(C)O1 (stereo not given in full) ?
[out] > 25 µM

---

TGI listing for selected compounds.
system: NCI-H226 lung; test: NCI tumour cell line growth inhibition, 48 h

// below: answered compounds
>>> reported("CCOC(=O)C(=O)NC12CC3CC(CC(C3)C1)C2")
"> 100 µM"
>>> reported("CCCCCCCCOC(=O)c1cc([N+](=O)[O-])c(Sc2ncnc3nc[nH]c23)c([N+](=O)[O-])c1")
"13.5 µM"
>>> reported("C=C(CCCO)[C@@H]1CC[C@@](C)(O)[C@H]1C")
"> 100 µM"
>>> reported("O=c1oc2ccc([N+](=O)[O-])cc2cc1Br")
"> 100 µM"
>>> reported("CCN1CCC(O)(c2ccc(O)cc2)C(C(=O)c2ccc(O)cc2)C1 (stereo not given)")
"61.9 µM"
>>> reported("COc1ccc2c(c1OC(C)=O)C1=CC(=O)CCC13CCNC3C2 (stereo not given)")
"> 100 µM"

[in] Which measured TGI value corresponds to CC1CC[P+](c2ccccc2)(c2ccccc2)CC1 ?
[out] > 100 µM

[in] Which measured TGI value corresponds to COc1ccc(C(=O)/C=C/c2ccc(OCC(=N)N)cc2)cc1 ?
[out] 34.1 µM

[in] Which measured TGI value corresponds to [O-]c1c2c(nn1-c1ccc(Cl)cc1)c1ccccc1c[n+]2Cc1ccccc1 ?
[out] > 100 µM

[in] Which measured TGI value corresponds to CCOC(=O)c1cccnc1C(OC(C)=O)OC(C)=O ?
[out] > 100 µM

[in] Which measured TGI value corresponds to c1ccc2c(NCCCCCCNc3cccc4ccccc34)cccc2c1 ?
[out] > 100 µM

[in] Which measured TGI value corresponds to Cc1ccc2nc(NC(=O)/C(=N\NC(=S)NN)C3C(=O)NC(=S)NC3=O)sc2c1 ?
[out] > 100 µM

[in] Which measured TGI value corresponds to CN(C(=O)c1ccco1)C(=S)N1CCN(c2ccccn2)CC1 ?
[out] > 100 µM

[in] Which measured TGI value corresponds to C=CC1(C)OC2(CCN(C(=O)OCC)CC2)OC1C (stereo not given) ?
[out] > 100 µM

[in] Which measured TGI value corresponds to COC(=O)C1=NN2c3ccccc3CN([C@@H](C)c3ccccc3)C(=O)[C@@H]2[C@H]1c1ccccc1 ?
[out] > 100 µM

[in] Which measured TGI value corresponds to CCOC(=O)CNc1nnnn1C1OC(CO)C(O)C1O (stereo not given) ?
[out] > 100 µM

[in] Which measured TGI value corresponds to Cc1ccc(NC(=O)OCC(COc2ccc(Cl)cc2Cl)OC(=O)Nc2ccc(C)cc2)cc1 (stereo not given) ?
[out] > 100 µM

[in] Which measured TGI value corresponds to CN1CCN(Cc2ccc(NC(=O)c3cncc(C#Cc4cnc(N)c5cnccc45)c3)cc2C(F)(F)F)CC1 ?
[out] 4.54 µM

[in] Which measured TGI value corresponds to CCCCOC(=O)c1cc(C(=CCC[C@H]2CC[C@@]3(C)[C@@H](CC[C@@H]4[C@@H]3CC[C@]3(C)[C@@H](C(C)CCCC(C)C)CC[C@@H]43)C2)c2cc(Cl)c(O)c(C(=O)OCCCC)c2)cc(Cl)c1O (stereo not given in full) ?
[out] > 50 µM

[in] Which measured TGI value corresponds to CC1CN=C(Nc2ccc(F)c(Cl)c2)S1 (stereo not given) ?
[out] > 100 µM
